Please provide measured IC50 for the entries that follow.
Molecular target: NDM-1 (Klebsiella pneumoniae)
Sequence (C7C422 29-270, looked up, species assumed): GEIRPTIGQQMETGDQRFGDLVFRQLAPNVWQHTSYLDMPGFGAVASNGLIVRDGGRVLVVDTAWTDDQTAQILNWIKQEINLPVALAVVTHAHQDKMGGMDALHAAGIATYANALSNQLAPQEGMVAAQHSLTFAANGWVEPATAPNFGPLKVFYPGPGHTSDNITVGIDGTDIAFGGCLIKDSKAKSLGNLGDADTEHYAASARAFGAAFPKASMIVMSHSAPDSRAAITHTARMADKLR
Assay: MBL inhibition, FC-5 fluorescence assay, NDM-1
Assay type: biochemical
Conditions: FC-5 cephalosporin substrate, fluorescence; ranges of obtained pIC50; read-out: pIC50 NDM-1 (converted)

Sample answers from the record:
Compound | IC50
CS(=O)(=O)Cc1ccc(-c2c(C(=O)O)[nH]c3c(COCc4ccc(CN)cc4)cccc23)cc1F [IC-85] | 0.1 to 1 nM
C[C@@H](c1cccc2c(-c3ccc(CS(C)(=N)=O)c(F)c3)c(C(=O)O)[nH]c12)n1cc(CN2CC(N)C2)oc1=O (stereo partly shown) [IC-53] | < 0.1 nM

Quick request: IC50 for each listed item, please.
1. CC(NC(=O)[C@H]1CC[C@H](CN)CC1)c1cccc2c(-c3ccc(CS(C)(=O)=O)c(F)c3)c(C(=O)O)[nH]c12 (mixture of isomers) [IC-99]
2. CNc1ccc(-c2c(C(=O)O)[nH]c3c([C@H](C)N4C[C@]5(C[C@@H](CN)C5)OC4=O)cccc23)cn1 [IC-36]
3. CC(c1noc(CCCN)n1)c1cccc2c(-c3ccc(CS(C)(=O)=O)c(F)c3)c(C(=O)O)[nH]c12 (stereo not shown) [IC-62]
4. CC(c1noc(C2CNC(=O)C2)n1)c1cccc2c(-c3ccc(CS(C)(=O)=O)c(F)c3)c(C(=O)O)[nH]c12 (stereo not shown) [IC-63]
5. C[C@@H](c1cccc2c(-c3ccnc(N)c3)c(C(=O)O)[nH]c12)N1C[C@]2(C[C@@H](CN)C2)OC1=O [IC-34]

1 to 10 nM
> 10 nM
< 0.1 nM
1 to 10 nM
> 10 nM

* * *

Test system: Acinetobacter baumannii NDM-1
Assay: Antibiotic susceptibility testing (MIC), AB NDM-1
Format: cell-based
Details: agar or broth dilution (CLSI/EUCAST)

Molecule | MIC values AB NDM-1
C[C@@H](c1cccc2c(-c3ccc(CS(C)(=O)=O)c(F)c3)c(C(=O)O)[nH]c12)n1cc(CCC2(N)CC2)oc1=O | B (B MIC values 2 ÷ 8)
CC(c1cccc2c(-c3ccc(CS(C)(=O)=O)c(F)c3)c(C(=O)O)[nH]c12)n1cc(CCC2(N)CC2)oc1=O (stereo not shown) | B (B MIC values 2 ÷ 8)
C[C@@H](c1cccc2c(-c3cccnc3)c(C(=O)O)[nH]c12)N1C[C@]2(C[C@@H](CN)C2)OC1=O | B (B MIC values 2 ÷ 8)

* * *

Please provide measured IC50 for the entries that follow.
Target: UniProt C7C422
Assay: MBL inhibition, FC-5 fluorescence assay, NDM-1
Type: biochemical
Conditions: FC-5 cephalosporin substrate, fluorescence; ranges of obtained pIC50; read-out: pIC50 NDM-1 (converted)

Compound | IC50
C[C@@H](c1cccc2c(-c3ccc(CS(C)(=O)=O)c(F)c3)c(C(=O)O)[nH]c12)N1CC2(CN(C(=N)N)C2)OC1=O | 0.1 to 1 nM

Quick request: IC50 for each listed item, please.
1. CC(Nc1ncc(CCCN)o1)c1cccc2c(-c3ccc(CS(C)(=O)=O)c(F)c3)c(C(=O)O)[nH]c12 (centres unmarked)
2. COc1cc(-c2c(C(=O)O)[nH]c3c([C@H](C)N4C[C@]5(C[C@@H](CN)C5)OC4=O)cccc23)ccn1

["1 to 10 nM", "0.1 to 1 nM"]

Quick request: IC50 for each listed item, please.
1. C[C@@H](c1cccc2c(-c3ccc(N)nc3)c(C(=O)O)[nH]c12)N1C[C@]2(C[C@@H](CN)C2)OC1=O
2. CC(c1cccc2c(-c3ccc(CS(C)(=O)=O)c(F)c3)c(C(=O)O)[nH]c12)n1cc(CNC(=O)CN)oc1=O (centres unmarked)
3. CC(c1cccc2c(-c3ccc(CS(C)(=O)=O)c(F)c3)c(C(=O)O)[nH]c12)n1cc(CN)oc1=O (centres unmarked)
4. C[C@@H](c1cccc2c(-c3ccc(CS(C)(=O)=O)c(F)c3)c(C(=O)O)[nH]c12)n1cc(CCCN)oc1=O

1 to 10 nM
0.1 to 1 nM
0.1 to 1 nM
< 0.1 nM

Quick request: IC50 for each listed item, please.
1. C[C@@H](c1cccc2c(-c3ccc(CS(C)(=O)=O)c(F)c3)c(C(=O)O)[nH]c12)n1cc(CN2CC(C)(N)C2)oc1=O
2. CC(c1nn[nH]n1)c1cccc2c(-c3ccc(CS(C)(=O)=O)c(F)c3)c(C(=O)O)[nH]c12 (centres unmarked)
3. CC(c1cccc2c(-c3ccc(CS(C)(=O)=O)c(Cl)c3)c(C(=O)O)[nH]c12)n1cc(CCCN)nn1 (centres unmarked)
4. C[C@@H](c1cccc2c(-c3ccc(NS(C)(=O)=O)c(F)c3)c(C(=O)O)[nH]c12)n1cc(CN2CC(N)C2)oc1=O
5. C[C@@H](c1cccc2c(-c3ccc(CS(C)(=O)=O)c(F)c3)c(C(=O)O)[nH]c12)N1C[C@]2(C[C@@H](CN)C2)OC1=O
6. CC(Nc1ncc(CCN)o1)c1cccc2c(-c3ccc(CS(C)(=O)=O)c(F)c3)c(C(=O)O)[nH]c12 (centres unmarked)
7. CC(OC(=O)Nc1ccc(CN)cc1)c1cccc2c(-c3ccc(CS(C)(=O)=O)c(F)c3)c(C(=O)O)[nH]c12 (centres unmarked)

1: < 0.1 nM; 2: > 10 nM; 3: 0.1 to 1 nM; 4: < 0.1 nM; 5: < 0.1 nM; 6: 1 to 10 nM; 7: 1 to 10 nM
